Assay: Cytotoxicity against human Bel7402 cells assessed as inhibition of cell proliferation after 96 hrs by MTT assay
Assay type: functional, cell-based
Details: Bel-7402, 96 h
measured.property: IC50

Observe how each entry below is paired with its result.
[
  {
    "molecule": "Cc1cc(C)c(-c2csc(NC(=O)/C=C/c3ccc(C4CC4)cc3)n2)c(C)c1",
    "reported.measurement": "6.58 µM"
  },
  {
    "molecule": "Cc1cc(C)c(-c2csc(NC(=O)/C=C/c3ccc(C(C)(C)C)cc3)n2)c(C)c1",
    "reported.measurement": "0.74 µM"
  },
  {
    "molecule": "Cc1cc(C)c(-c2csc(NC(=O)/C=C/c3ccc(C(F)(F)F)cc3)n2)c(C)c1",
    "reported.measurement": "34.1 µM"
  },
  {
    "molecule": "Cc1cc(C)c(-c2csc(NC(=O)/C=C/c3ccc(N4CCOCC4)cc3)n2)c(C)c1",
    "reported.measurement": "10.6 µM"
  },
  {
    "molecule": "COc1cc(C)c(-c2csc(NC(=O)/C=C/c3ccc(N4CCOCC4)cc3)n2)c(C)c1",
    "reported.measurement": "9.65 µM"
  }
]

Inquiry: Recall and state the measured IC50 for CC(=O)O[C@H]1C(=O)[C@@]2(C)[C@H]([C@H](OC(=O)c3ccccc3)[C@]3(O)C[C@H](OC(=O)[C@H](O)[C@@H](NC(=O)c4ccccc4)c4ccccc4)C(C)=C1C3(C)C)[C@]1(OC(C)=O)CO[C@@H]1C[C@@H]2O [PACLITAXEL] .
Reply text: > 10 µM

---

Below, each entry is listed with its recorded pIC50.
System: Jurkat
Test: Cytotoxicity against human Jurkat cells assessed as inhibition of cell proliferation after 96 hrs by MTT assay
Format: functional, cell-based
Reminder that pIC50 means the negative base-10 logarithm of the concentration expressed in mol/L.

Inquiry: Recall and state the measured pIC50 for Cc1cc(C)c(-c2csc(NC(=O)/C=C/c3ccc(C4CC4)cc3)n2)c(C)c1 .
Reply text: 5.91

Inquiry: Recall and state the measured pIC50 for Cc1cc(C)c(-c2csc(NC(=O)/C=C/c3ccc(C(F)(F)F)cc3)n2)c(C)c1 .
Reply text: 5.94

Inquiry: Recall and state the measured pIC50 for Cc1cc(C)c(-c2csc(NC(=O)/C=C/c3ccc(N4CCOCC4)cc3)n2)c(C)c1 .
Reply text: 5.04

---

Below, each entry is listed with its recorded IC50.
Tested on: K562
Assay: Cytotoxicity against human K562 cells assessed as inhibition of cell proliferation after 96 hrs by MTT assay
Assay type: functional, cell-based
Conditions: K562, 96 h

Observe how each entry below is paired with its result.
[
  {
    "chemical.structure": "Cc1cc(C)cc(-c2csc(NC(=O)/C=C/c3ccc(N4CCOCC4)cc3)n2)c1",
    "target.desc": "K562",
    "IC50": "> 90 µM"
  },
  {
    "chemical.structure": "Cc1ccc(-c2csc(NC(=O)/C=C/c3ccc(N4CCOCC4)cc3)n2)cc1",
    "target.desc": "K562",
    "IC50": "> 90 µM"
  }
]

// switching to the query molecule
Inquiry: Recall and state the measured IC50 for COc1ccccc1-c1csc(NC(=O)/C=C/c2ccc(N3CCOCC3)cc2)n1 .
Reply text: > 90 µM

Where these numbers come from: ChEMBL document CHEMBL3739376
